System: NIH3T3
test name: qHTS assay to identify novel small-molecules to repurpose for Merkel cell carcinoma treatment (AID 1296009); also: nearly all actives have a fitted effect of over 60% in size
applied conditions: MCC and control cell lines, CellTiter-Glo viability, 72 h; at 44.8 µM (top of the series) unless noted
Inconclusive results are not listed. Calls of active or inactive are those of the source. Calls follow the shape of the dose curve; as a rule, active = well fitted inhibition curve with a large enough effect; inconclusive = small, poorly fitted or top-dose-only effect; inactive = flat fitted curve, though single readings scatter.
measurement label: outcome

>>> observed_measurement("Cn1cc(-c2c[nH]c3ncnc(N4CCOCC4)c23)cn1")
"inactive"
>>> observed_measurement("Nc1c(-c2ccccc2)nc(Cl)c2c(O)n[nH]c(=O)c12")
"inactive"

###

Tested on: HACAT
test name: qHTS assay to identify novel small-molecules to repurpose for Merkel cell carcinoma treatment (AID 1296009); also: nearly all actives have a fitted effect of over 60% in size
applied conditions: MCC and control cell lines, CellTiter-Glo viability, 72 h; at 44.8 µM (top of the series) unless noted
Records with an inconclusive call do not appear. Calls of active or inactive are those of the source. The call rests on the fitted dose curve; in most records, active means well fitted inhibition curve with a large enough effect; inconclusive means small, poorly fitted or top-dose-only effect; inactive means flat fitted curve, though single readings scatter. Where a SMILES comes first, the peptide text is derived from it. The star is where a group is joined. βNA = c1ccc2cc(N*)ccc2c1; Cbz = O=C(OCc1ccccc1)*
measurement label: outcome

>>> observed_measurement("CCCc1[nH]nc2c1C(c1cc(Cl)cc(Cl)c1O)C(C#N)=C(N)O2 (stereo not drawn)")
"inactive"
>>> observed_measurement("CC(C)CC(NC(=O)OCc1ccccc1)C(=O)NC(CC(C)C)C(=O)NC(CCC(=O)O)C(=O)Nc1ccc2ccccc2c1 (stereo not drawn) (Cbz-Leu-Leu-Glu-βNA; configuration not given here)")
"inactive"
>>> observed_measurement("O=C(O)CCc1cccc(O)c1O[C@@H]1O[C@H](CO)[C@@H](O)[C@H](O)[C@H]1O")
"inactive"
>>> observed_measurement("COc1cc(O)c2c(c1)C1(OC2=O)C(C)=CC(=O)C1O (stereo not drawn)")
"inactive"
>>> observed_measurement("COC(=O)c1ccccc1O[C@@H]1O[C@H](CO[C@@H]2OC[C@@H](O)[C@H](O)[C@H]2O)[C@@H](O)[C@H](O)[C@H]1O")
"inactive [at 17.4 µM]"
>>> observed_measurement("CC(=O)/C=C/[C@H]1[C@](C)(O)[C@@H](O)[C@H](O)C2C(C)(C)CCC[C@@]21C (stereo partly drawn)")
"inactive"
>>> observed_measurement("CC1(C)CC[C@]2(C(=O)O)[C@H](O)C[C@]3(C)C(=CCC4[C@@]5(C)CC[C@H](O[C@@H]6OC[C@@H](O)[C@H](O)[C@H]6O)[C@@](C)(C(=O)O)C5CC[C@]43C)[C@@H]2C1 (stereo partly drawn)")
"inactive [at 17.4 µM]"
>>> observed_measurement("C/C=C/C=C/C(=O)OC1CC/C=C/C(O)C(O)C(CCC)OC1=O (stereo not drawn)")
"inactive"
>>> observed_measurement("CC1=C2CC(O)(C(C)(C)O)C(O[C@@H]3O[C@H](CO)[C@@H](O)[C@H](O)[C@H]3O)CC(C)C2CC1=O (stereo partly drawn)")
"inactive [at 17.4 µM]"
>>> observed_measurement("CCC[C@H](N[C@@H](C)C(=O)N1[C@H](C(=O)O)C[C@@H]2CCCC[C@@H]21)C(=O)O")
"inactive"
>>> observed_measurement("C=C1[C@H](OC(C)=O)[C@H]2[C@@H](OC(=O)c3ccccc3)[C@@H](C)C[C@]2(O)[C@@H](OC(C)=O)[C@H](C)/C=C/C(C)(C)C(=O)[C@H](OC(C)=O)[C@H]1OC(C)=O")
"inactive [at 17.4 µM]"
>>> observed_measurement("COCC1OC(OC(C)(C)C2CCC3(C)C=C(C4CCC5C4(C)CC(O)C4OC(C(C)(C)O)CCC45C)CCC3O2)C(NC(C)=O)C(O)C1O (stereo not drawn)")
"inactive [at 17.4 µM]"
>>> observed_measurement("CC(=O)NC(Cc1c[nH]c2ccccc(=O)c12)C(=O)O (stereo not drawn)")
"inactive"
>>> observed_measurement("CNc1nc(Nc2cn(C(C)(C)C#N)nc2C)ncc1C(F)(F)F")
"inactive"
>>> observed_measurement("COc1cc(/C=C/C(=O)O)ccc1O[C@@H]1O[C@H](CO)[C@@H](O)[C@H](O)[C@H]1O[C@@H]1OC[C@](O)(CO)[C@H]1O")
"inactive [at 17.4 µM]"
>>> observed_measurement("COc1cc(C(=O)OC[C@@]2(O)CO[C@@H](O[C@H]3[C@H](Oc4ccc(O)cc4)O[C@H](CO)[C@@H](O)[C@@H]3O)[C@@H]2O)cc(OC)c1O")
"inactive [at 17.4 µM]"
>>> observed_measurement("CCCCC(=O)N1c2ccccc2NC2=C(C(=O)CCC2)C1c1ccccc1Cl (stereo not drawn)")
"inactive"

###

Test system: PA-1
test name: Primary qHTS to identify gynecologic anti-cancer compounds using libraries of approved drugs and bioactive compounds (AID 1345084); also: % is scaled to controls: 0 for no effect and ±100 for the full control effect; nearly all actives have a fitted effect of over 55% in size
applied conditions: Gynecologic cancer cell panel viability, ATPlite luminescence, 48 h; series mostly up to 57.5 µM
Records with an inconclusive call do not appear. Active and inactive are the calls of the source. Calls come from the whole dose curve; as a rule, active = well fitted cell-killing curve with a large enough effect; inconclusive = small, poorly fitted or top-dose-only effect, or effect the other way; inactive = flat fitted curve, though single readings scatter.
measurement label: activity change, negative = cytotoxicity

>>> observed_measurement("COC(=O)C[C@@H]1C(C(=O)O)=CO[C@@H](O[C@@H]2O[C@H](CO)[C@@H](O)[C@H](O)[C@H]2O)/C1=C\\COC(=O)/C=C/c1ccc(O)c(OC)c1")
"inactive"
>>> observed_measurement("CC1(C)CC[C@]2(C(=O)O[C@@H]3O[C@H](CO)[C@@H](O)[C@H](O)[C@H]3O)CC[C@]3(C)C(=CCC4[C@@]5(C)CC[C@H](OC6OC(C(=O)O)C(OC7OC(CO)C(O)C(O)C7O)C(O)C6O)C(C)(C)C5CC[C@]43C)C2C1 (stereo not given in full)")
"3.63% [at 11.6 µM] (inactive)"
>>> observed_measurement("CN(C)CCC[C@]1(c2ccc(F)cc2)OCc2cc(C#N)ccc21")
"inactive"
>>> observed_measurement("NC[C@H]1CCC[C@@H](CNC(=O)[C@@H](Cc2c[nH]c3ccccc23)NC(=O)N2CCC3(C=Cc4ccccc43)CC2)C1")
"inactive"
>>> observed_measurement("c1cc(-c2cc(C3CCNCC3)[nH]n2)ccn1")
"inactive"
>>> observed_measurement("CC(C)CC[C@@H](O)[C@](C)(O)[C@H]1CC[C@@]2(O)C3=CC(=O)[C@@H]4C[C@@H](O)[C@@H](O)C[C@]4(C)[C@H]3CC[C@]12C")
"inactive"
>>> observed_measurement("CC[C@H](NC(=O)c1c(O)c(-c2ccccc2)nc2ccccc12)c1ccccc1")
"inactive"
>>> observed_measurement("CC1(C)CC[C@]2(C(=O)O[C@@H]3O[C@H](CO)[C@@H](O)[C@H](O)[C@H]3O)CC[C@]3(C)C(=CCC4[C@@]5(C)CC[C@H](O[C@@H]6O[C@H](C(=O)O)[C@@H](O)[C@H](O)[C@H]6OC6OC(CO)C(O)C(O)C6O)C(C)(C)C5CC[C@]43C)[C@@H]2C1 (stereo not given in full)")
"17.8% [at 11.6 µM] (inactive)"
>>> observed_measurement("CC1OC(OC2C(OC3C(O[C@H]4CC[C@@]5(C)C(CC[C@]6(C)C5C(=O)CC5=C7CC(C)(C)CC(O)[C@]7(C)CC[C@]56C)C4(C)C)OC(C(=O)O)C(O)C3O)OCC(O)C2O)C(O)C(O)C1O (stereo not given in full)")
"14.2% [at 11.6 µM] (inactive)"
>>> observed_measurement("C=CC(C)(C)C12Nc3c(ccc4c3OC(C)(C)C=C4)C1(O)CC1C(=O)N3CCCC3C(=O)N12 (stereo not given)")
"inactive"
>>> observed_measurement("C=C[C@H]1[C@H](O[C@@H]2O[C@H](CO)[C@@H](O)[C@H](O)[C@H]2O)OC=C2C(=O)N3Cc4c([nH]c5ccccc5c4=O)[C@@H]3C[C@H]21")
"inactive"
>>> observed_measurement("COc1cc(Nc2nc3c(s2)CCCC3c2ccccc2)ccc1-n1cnc(C)c1 (stereo not given)")
"7.13% [at 11.6 µM] (inactive)"
>>> observed_measurement("O=c1[nH]ccc2nc(-c3ccc(CN4CCC(c5nc(-c6ccccn6)n[nH]5)CC4)cc3)c(-c3ccccc3)cc12")
"inactive"
>>> observed_measurement("COC(=O)[C@H](c1ccccc1Cl)N1CCC2SC(=O)C=C2C1 (stereo not given in full)")
"inactive"
>>> observed_measurement("C[C@@H]1[C@H](O)[C@@H]2OC(=O)C3=C2[C@H](CCC3)[C@@]12C[C@@H](c1ccoc1)OC2=O")
"inactive"

###

System: CRL-7250
test name: Cytotoxic Profiling of Annotated Libraries Using Quantitative High-Throughput Screening (AID 1296008); also: % is scaled to controls: 0 for no effect and ±100 for the full control effect; nearly all actives have a fitted effect of over 60% in size
applied conditions: Five cell lines viability, CellTiter-Glo ATP luminescence, 48-72 h; stronger effect = lower value
Inconclusive results are not listed.
measurement label: max response (%)

>>> observed_measurement("C=C1CCC[C@]2(C)CC[C@@](O)(C(=C)C(=O)O)C[C@@H]12")
-0.228
>>> observed_measurement("CC1(C)CC[C@]2(C(=O)O[C@@H]3O[C@H](CO)[C@@H](O)[C@H](O)[C@H]3O)CC[C@]3(C)C(=CCC4[C@@]5(C)C[C@H](O)[C@H](O[C@@H]6OC[C@@H](O)[C@H](O)[C@H]6O)[C@@](C)(CO)C5CC[C@]43C)C2C1 (stereo partly drawn)")
-3.53
>>> observed_measurement("CC(C)c1ccc2c(c1)[C@H](O)CC1[C@@](C)(C(=O)O)CCC[C@]21C (stereo partly drawn)")
-0.592
>>> observed_measurement("C=CC(C)(O)CCC1C(C)(O)CCC2C(C)(C)CCCC21C (stereo not drawn)")
-9.7
>>> observed_measurement("COc1ccc(/C=C/C(=O)N2CCCC2)cc1")
1.09
>>> observed_measurement("C[C@@H]1C[C@@H](O)[C@@]23CO[C@]2(CO)C[C@@H](O)CC3[C@@]12CC(c1ccoc1)OC2=O (stereo partly drawn)")
-3.28
>>> observed_measurement("CC1OC(OC2C(OC3C(O[C@H]4CC[C@@]5(C)C(CC[C@]6(C)C5C(=O)CC5=C7CC(C)(C)CC(O)[C@]7(C)CC[C@]56C)C4(C)C)OC(C(=O)O)C(O)C3O)OCC(O)C2O)C(O)C(O)C1O (stereo partly drawn)")
0.224
>>> observed_measurement("COC(=O)C1=COC(OC2OC(CO)C(O)C(O)C2O)C2C(C)C(OC(=O)/C=C/c3ccc(O)cc3)C(O)C12 (stereo not drawn)")
0.486
>>> observed_measurement("CC(=O)OC1CCC2(C)C(CCC3(C)C2CC=C2C4CC(C)(C)CCC4(C)CCC23C)C1(C)C(=O)O (stereo not drawn)")
-8.32
>>> observed_measurement("CC(=O)O[C@@H]1[C@H](O[C@@H]2O[C@H](CO)[C@@H](O)[C@H](O)[C@H]2O)[C@@H](O[C@@H]2O[C@@H](C)[C@H](O)[C@@H](O[C@@H]3O[C@H](CO)[C@@H](O)[C@H](O)[C@H]3O)[C@H]2O)[C@H](OC(=O)[C@]23CCC(C)(C)C[C@H]2C2=CCC4[C@@]5(C)C[C@H](O)[C@H](O[C@@H]6O[C@H](C(=O)O)[C@@H](O)[C@H](O)[C@H]6O)[C@@](C)(C(=O)O)C5CC[C@@]4(C)[C@]2(C)CC3)O[C@@H]1C (stereo partly drawn)")
-5.6
>>> observed_measurement("Cc1cc(O[C@@H]2O[C@H](COC(=O)CC(=O)O)[C@@H](O)[C@H](O)[C@H]2O)c(C(C)C)cc1O")
0.0068
>>> observed_measurement("Oc1ccc(CC2NCCc3cc(O)c(O)cc32)cc1 (stereo not drawn)")
4.94
>>> observed_measurement("CCC(C)C(N)C(=O)NCCN1CCOCC1 (stereo not drawn)")
-0.617
>>> observed_measurement("CC(C)(O)C(O)C(=O)OCc1ccc(O[C@@H]2O[C@H](CO)[C@@H](O)[C@H](O)[C@H]2O)cc1 (stereo partly drawn)")
-9.18
>>> observed_measurement("CCC(C)/C=C(C)/C=C/C1=CC2=C(Cl)C(=O)C(C)(OC(C)=O)C(=O)C2=CN1CCCCC(N)C(=O)O (stereo not drawn)")
-2.74
>>> observed_measurement("CCC1(O)CC2c3cc(OC)c(OC)cc3CCN2CC1CC(C)C (stereo not drawn)")
-19.7
>>> observed_measurement("O=C(O[C@H]1[C@H](Oc2ccc(O)cc2CO)O[C@H](CO)[C@@H](O)[C@@H]1O)c1ccccc1")
-4.77
>>> observed_measurement("CC1=C2C(=O)C=C(CO[C@@H]3O[C@H](CO)[C@@H](O)[C@H](O)[C@H]3O)[C@@H]2[C@H]2OC(=O)[C@H](C)[C@@H]2CC1")
-4.79
>>> observed_measurement("O=C(/C=C/c1ccc(O)c(O)c1)O[C@H]1[C@H](OC2CCCCC2O)O[C@H](CO)[C@@H](O)[C@@H]1O (stereo partly drawn)")
-3.22
>>> observed_measurement("COC(=O)Cn1nc(-c2cccc(OC)c2)c2ccccc21")
4.76
>>> observed_measurement("COc1cn(-c2ccc(-n3cccn3)cc2F)nc(-c2ccnn2-c2ccccc2)c1=O")
1.34
>>> observed_measurement("C=C[C@H]1[C@H](O[C@@H]2O[C@H](CO)[C@@H](O)[C@H](O)[C@H]2O)OC=C(C(=O)OC)[C@H]1CC=O")
3.16
>>> observed_measurement("C[C@]12CCC[C@](C)(C(=O)O)C1CCC13CC(CO)C(CCC12)C3 (stereo partly drawn)")
-1.66
